These data points were gathered from patent EP2239269B1.

In this section, each of the molecules is paired with its reported RT.
# MEASUREMENT_DESCRIPTION: Stability of marker solutions stored frozen at -10 to -20°C, followed by retention time at column calibration
# Type: physicochemical
# Set-up: unit not given here
# MEASUREMENT_CONTEXT: stored at -10° to -20°C; date of calibration 04-step-97, interval 105 days

MOLECULE	RT
TV-77: 77-mer sequence-defined polypeptide molecular weight marker of Ala, Glu, Tyr, Lys, molecular weight = 8259 daltons (peptide) AKKYAKKEKAYAKKAEKAAKKAEAKAYKAAEAKKKAKAEAKKYAKAAKAEKKEYAAAEAKYKAEAAKAAAKEAAYEA	25.550
TV-86: 86-mer sequence-defined polypeptide molecular weight marker of Ala, Glu, Tyr, Lys, molecular weight = 9220 daltons (peptide) AKKYAKKEKAYAKKAEKAAKKAEAKAYKAAEAKKKAKAEAKKYAKAAKAEKKEYAAAEAKYKAEAAKKAYKAEAAKAAAKEAAYEA	24.950
TV-109: 109-mer sequence-defined polypeptide molecular weight marker, molecular weight = 11727 daltons (peptide) AKKYAKKAEKAYAKKAKAAKEKKAYAKKEAKAYKAAEAKKKAKAEAKKYAKEAAKAKKEAYKAEAKKYAKAAKAEKKEYAAAEAKKAEAAKAYKAEAAKAAAKEAAYEA	23.583
TV-66: 66-mer sequence-defined polypeptide molecular weight marker of Ala, Glu, Tyr, Lys, molecular weight = 7040 daltons (peptide) AKKYAKKEKAYAKAKKAEAKAAKKAKAEAKKYAKAAKAEKKEYAAAEAKYKAEAAKAAAKEAAYEA	26.300
